biological target: Tyrosine-protein kinase BTK (Homo sapiens, UniProt Q06187); assay: Inhibition of recombinant human full length N-terminal GST-tagged BTK (2 to 659 residues) expressed in baculovirus expression system using FITC-AHA-EEPLYWSFPAKKK-NH2 substrate measured after 90 mins by off-chip mobility shift assay
Sequence (Q06187 whole entry, the tested form may be a part): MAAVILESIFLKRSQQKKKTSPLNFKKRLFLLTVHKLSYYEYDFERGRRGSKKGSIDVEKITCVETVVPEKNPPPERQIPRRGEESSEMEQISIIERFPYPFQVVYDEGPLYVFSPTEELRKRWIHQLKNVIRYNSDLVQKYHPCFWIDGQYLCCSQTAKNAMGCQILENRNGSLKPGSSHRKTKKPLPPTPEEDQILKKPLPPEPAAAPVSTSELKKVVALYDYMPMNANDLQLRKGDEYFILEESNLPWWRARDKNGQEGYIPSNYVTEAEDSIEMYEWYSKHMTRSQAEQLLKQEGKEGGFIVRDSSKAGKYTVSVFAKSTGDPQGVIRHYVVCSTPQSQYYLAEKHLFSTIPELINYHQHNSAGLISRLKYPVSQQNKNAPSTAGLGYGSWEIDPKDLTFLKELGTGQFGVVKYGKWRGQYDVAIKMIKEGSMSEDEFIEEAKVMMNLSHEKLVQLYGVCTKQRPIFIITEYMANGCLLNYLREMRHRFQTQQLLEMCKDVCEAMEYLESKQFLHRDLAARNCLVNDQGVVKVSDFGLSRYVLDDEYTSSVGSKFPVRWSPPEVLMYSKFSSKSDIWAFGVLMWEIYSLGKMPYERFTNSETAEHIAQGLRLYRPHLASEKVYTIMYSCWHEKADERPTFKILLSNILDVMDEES
pIC50: −log10 of the molar value.
PARAMETER: pIC50

Sample answers from the record:
1. NC(=O)c1ccc(N2CC[C@H](N)C2)nc1Nc1ccc(C(=O)N2CCOCC2)cc1 : 5.80
2. C=CC(=O)N[C@@H]1CCN(c2ncc(C(N)=O)c(N)n2)C1 : 6.30
3. C=CC(=O)N[C@H]1CCN(c2ncc(C(N)=O)c(Nc3ccc(C(=O)N4CC(C)OC(C)C4)cc3)n2)C1 (some centres undefined) : 8.96

[a] C=CC(=O)N(C)[C@H]1CCN(c2ccc(C(N)=O)c(Nc3ccc(CCN4CCCC4)cc3)n2)C1
[b] C=CC(=O)N1CCN(c2ccc(C(N)=O)c(Nc3ccc(CCN4CCCC4)cc3)n2)CC1
[c] C=CC(=O)N1C[C@H]2C[C@@H]1CN2c1ccc(C(N)=O)c(Nc2ccc(C)nc2)n1
[d] C=CC(=O)N[C@H]1CCN(c2ncc(C(N)=O)c(Nc3ccc(C(=O)N4CCOCC4)cc3)n2)C1
Query: Order each entry by recorded pIC50, climbing from the minimum. Please reply with the labels ordered as requested. Many thanks.
Result: a, d, b, c

[A] C=CC(=O)N[C@@H]1CN(c2ccc(C(N)=O)c(Nc3ccc(CCN4CCCC4)cc3)n2)CC12CC2
[B] C=CC(=O)N[C@H]1CCN(c2ccc(C(N)=O)c(Nc3ccc(Oc4ccccc4)cc3)n2)C1
Query: Field: lower pIC50 | Options: A / B Answer = label.
Result: B

[a] C=CC(=O)N[C@H]1CCN(c2ccc(C(N)=O)c(Nc3ccc(N4C[C@@H](C)O[C@@H](C)C4)cc3)n2)C1
[b] C=CC(=O)N[C@@H]1CCN(c2ccc(C(N)=O)c(Nc3ccc(C(=O)N4CCOCC4)cc3)n2)C1
Query: Field: lower pIC50 | Options: a / b Answer = label.
Result: b

====

assay: Efflux ratio of permeability in human Caco2 cells; conditions: Caco-2
PARAMETER: efflux ratio

[1] C=CC(=O)N[C@@H]1CN(c2ccc(C(N)=O)c(Nc3ccc(CCN4CCCC4)cc3)n2)CC12CC2
[2] C=CC(=O)N(C)[C@H]1CCN(c2ccc(C(N)=O)c(Nc3ccc(CCN4CCCC4)cc3)n2)C1
Query: Field: lower efflux ratio | Options: 1 / 2 Answer = label.
Result: 2
(2: 266, 1: 822)

====

target: Tyrosine-protein kinase BTK (Homo sapiens, UniProt Q06187); experiment: Inhibition of BTK in goat anti-human IgM F(ab')2-stimulated human PBMC assessed as suppression of BCR-induced CD69 expression on B cells pretreated for 1 hr followed by blood stimulation measured after overnight incubation by flow cytometry; assay type: cell-based
pIC50: −log10 of the molar value.
PARAMETER: pIC50

1) C=CC(=O)N1CCN(c2ccc(C(N)=O)c(Nc3ccc(CCN4CCCC4)cc3)n2)CC1 : 8.37
2) C=CC(=O)N[C@H]1CCN(c2ncc(C(N)=O)c(Nc3ccc(C(=O)N4CC(C)OC(C)C4)cc3)n2)C1 (stereo partly drawn) : 7.36
3) C=CC(=O)N[C@H]1CCN(c2nc(Nc3ccc(N4C[C@@H](C)O[C@@H](C)C4)cc3)c(C(N)=O)cc2F)C1 : 7.85

[A] C=CC(=O)N1C[C@H]2C[C@@H]1CN2c1ccc(C(N)=O)c(Nc2ccc(C)nc2)n1
[B] C=CC(=O)N(C)[C@H]1CCN(c2ccc(C(N)=O)c(Nc3ccc(CCN4CCCC4)cc3)n2)C1
Query: Field: lower pIC50 | Options: A / B Answer = label.
Result: B
(B: 7.39, A: 8.85)

====

molecular target: Tyrosine-protein kinase BTK (Homo sapiens, UniProt Q06187); assay: Inhibition of recombinant human full length N-terminal GST-tagged BTK (2 to 659 residues) expressed in baculovirus expression system using FITC-AHA-EEPLYWSFPAKKK-NH2 substrate measured after 90 mins by off-chip mobility shift assay
pIC50: −log10 of the molar value.
PARAMETER: pIC50

Sample answers from the record:
1. C=CC(=O)N[C@H]1CCN(c2ncc(C(N)=O)c(Nc3ccc(F)cc3)n2)C1 : 8.10
2. C=CC(=O)N[C@H]1CCN(c2ccc(C(N)=O)c(Nc3ccc(CCN4CCCC4)cc3)n2)C1 : 8.72
3. C=CC(=O)N[C@H]1CCN(c2nc(Nc3ccc(N4C[C@@H](C)O[C@@H](C)C4)cc3)c(C(N)=O)cc2F)C1 : 8.80

[A] C=CC(=O)N[C@H]1CCN(c2ccc(C(N)=O)c(Nc3ccc(C(=O)N4CCOCC4)cc3)n2)C1
[B] C=CC(=O)N[C@H]1CCCN(c2ccc(C(N)=O)c(Nc3ccc(C(=O)N4CCOCC4)cc3)n2)C1
[C] C=CC(=O)N[C@H]1CCN(c2ncc(C(N)=O)c(N)n2)C1
Query: Sequence the entries by pIC50, beginning with the highest number. Please reply with the labels ordered as requested. Many thanks.
Result: A, B, C

====

target: Tyrosine-protein kinase BTK (Homo sapiens, UniProt Q06187); assay: Inhibition of BTK in goat anti-human IgM F(ab')2-stimulated human PBMC assessed as suppression of BCR-induced CD69 expression on B cells pretreated for 1 hr followed by blood stimulation measured after overnight incubation by flow cytometry; assay type: cell-based
pIC50: −log10 of the molar value.
PARAMETER: pIC50

1) C=CC(=O)N[C@@H]1CN(c2ccc(C(N)=O)c(Nc3ccc(CCN4CCCC4)cc3)n2)CC12CC2 : 8.31
2) C=CC(=O)N[C@H]1CCN(c2ccc(C(N)=O)c(Nc3ccc(N4C[C@@H](C)O[C@@H](C)C4)cc3)n2)C1 : 8.21
3) C=CC(=O)N[C@H]1CCN(c2ccc(C(N)=O)c(Nc3ccc(CCN4CCCC4)cc3)n2)C1 : 8.15
